- TARGET OR TEST SYSTEM: Cruzipain (Trypanosoma cruzi)
- PROCEDURE SUMMARY: Inhibition of recombinant Trypanosoma cruzi cruzain at 10 uM preincubated for 10 mins followed by Z-FR-AMC substrate addition measured for 5 mins at 12 secs time interval by […] relative to control
QUANTITY KIND: inhibition (%)

Take a look at these entries with their results.
C/C(=N\Nc1nc(-c2ccccc2)c(C)s1)c1ccc(Cl)c(Cl)c1 :: 76
C/C(=N\Nc1nc(C)c(C)s1)c1ccc(Cl)c(Cl)c1 :: 84
C/C(=N\Nc1nc(-c2ccc(Cl)c(Cl)c2Cl)cs1)c1ccc(Cl)c(Cl)c1 :: 38
C/C(=N\Nc1nc(-c2ccc(Br)cc2)cs1)c1ccc(Cl)c(Cl)c1 :: 43
C/C(=N\Nc1nc(CCl)cs1)c1ccc(Cl)c(Cl)c1 :: 50
C/C(=N\N=c1\scc(-c2ccccc2)n1-c1ccccc1)c1ccc(Cl)c(Cl)c1 :: 31
COc1ccc(-c2csc(N/N=C(\C)c3ccc(Cl)c(Cl)c3)n2)cc1 :: 41

A = C/C(=N\Nc1nc(-c2ccc(-c3ccccc3)cc2)cs1)c1ccc(Cl)c(Cl)c1
B = C/C(=N\Nc1nc(-c2ccc(C)cc2)cs1)c1ccc(Cl)c(Cl)c1
Problem: Of A and B , which carries the smaller reported inhibition figure? Give the chosen item's label as your response.
Result: A
(A: 44%, B: 75%)

###

- PROCEDURE SUMMARY: Cytotoxicity against rat H9c2 cells assessed as reduction in cell viability after 72 hrs by alamar blue assay
- Format: cell-based
The following compounds are shown together with reported CC50 at 72 h values.

Known CC50 at 72 h results, listed for orientation:
C/C(=N\Nc1nc(CCl)cs1)c1ccc(Cl)c(Cl)c1 :: > 50 µM
C/C(=N\Nc1nc(-c2ccccc2)cs1)c1ccc(Cl)c(Cl)c1 :: > 50 µM

Moving on to the next compound.
Problem: For the compound "C/C(=N\Nc1nc(-c2ccccn2)cs1)c1ccc(Cl)c(Cl)c1" , what CC50 at 72 h is on record?
Result: 10.2 µM

###

- TARGET OR TEST SYSTEM: UniProtKB P25779
- Sequence (P25779 123-467 limits assumed): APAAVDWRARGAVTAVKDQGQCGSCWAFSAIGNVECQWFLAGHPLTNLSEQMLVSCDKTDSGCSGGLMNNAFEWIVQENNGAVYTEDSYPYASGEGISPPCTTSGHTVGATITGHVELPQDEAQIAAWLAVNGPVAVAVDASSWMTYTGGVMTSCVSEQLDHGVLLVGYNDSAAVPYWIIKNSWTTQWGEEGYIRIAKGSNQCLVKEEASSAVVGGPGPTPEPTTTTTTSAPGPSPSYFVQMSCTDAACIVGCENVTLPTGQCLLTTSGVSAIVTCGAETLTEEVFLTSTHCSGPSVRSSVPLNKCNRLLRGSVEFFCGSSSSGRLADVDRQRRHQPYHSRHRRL
- PROCEDURE SUMMARY: Inhibition of recombinant Trypanosoma cruzi cruzain at 10 uM preincubated for 10 mins followed by Z-FR-AMC substrate addition measured for 5 mins at 12 secs time interval by […] relative to control
QUANTITY KIND: inhibition (%)

Take a look at these entries with their results.
C/C(=N\Nc1nc(-c2ccc3ccccc3c2)cs1)c1ccc(Cl)c(Cl)c1 :: 44
C/C(=N\Nc1nc(-c2ccccc2)cs1)c1ccc(Cl)c(Cl)c1 :: 59
C/C(=N\N=c1\scc(-c2ccccc2)n1C)c1ccc(Cl)c(Cl)c1 :: 12
C/C(=N\Nc1nc(-c2ccc(Cl)cc2Cl)cs1)c1ccc(Cl)c(Cl)c1 :: 35
C/C(=N\Nc1nc(-c2ccc(Cl)cc2)cs1)c1ccc(Cl)c(Cl)c1 :: 31
C/C(=N\Nc1nc(-c2ccc(Br)cc2)c(C)s1)c1ccc(Cl)c(Cl)c1 :: 74
C/C(=N\Nc1nc(-c2ccncc2)cs1)c1ccc(Cl)c(Cl)c1 :: 32
C/C(=N\Nc1nc(-c2ccccn2)cs1)c1ccc(Cl)c(Cl)c1 :: 17

P = C/C(=N\Nc1nc(C)cs1)c1ccc(Cl)c(Cl)c1
Q = C/C(=N\Nc1nc(-c2ccc(F)cc2)cs1)c1ccc(Cl)c(Cl)c1
Problem: Just tell me: smaller inhibition value, P or Q ? Your answer should be the label of the entry you select.
Result: Q
(Q: 32%, P: 97%)

###

- PROCEDURE SUMMARY: Safety index, ratio of compound CC50 to gentian violet CC50 for cytotoxicity against mouse J774 cells
- Assay type: cell-based
QUANTITY KIND: selectivity ratio
Answer using only a numeral; do not append any unit.

Problem: What value of selectivity ratio has been reported for the following molecule? "C/C(=N\Nc1nc(-c2ccccn2)cs1)c1ccc(Cl)c(Cl)c1"
Result: 22

###

- PROCEDURE SUMMARY: Cytotoxicity against mouse J774 cells assessed as reduction in cell viability after 72 hrs by alamar blue assay
- Type: cell-based
Listed next: entries and their corresponding CC50 at 72 h.

// below: answered compounds
C/C(=N\Nc1nc(-c2cccc([N+](=O)[O-])c2)cs1)c1ccc(Cl)c(Cl)c1 :: > 50 µM
C/C(=N\Nc1nc(-c2ccc(Cl)c(Cl)c2)cs1)c1ccc(Cl)c(Cl)c1 :: > 50 µM
C/C(=N\Nc1nc(-c2ccc(Cl)cc2)cs1)c1ccc(Cl)c(Cl)c1 :: > 50 µM
C/C(=N\Nc1nc(-c2ccc(C)cc2)cs1)c1ccc(Cl)c(Cl)c1 :: > 50 µM
C/C(=N\Nc1nc(-c2ccccc2)c(C)s1)c1ccc(Cl)c(Cl)c1 :: > 50 µM

Problem: I have this compound here, "C/C(=N\Nc1nc(-c2ccc(Cl)c(Cl)c2Cl)cs1)c1ccc(Cl)c(Cl)c1" , and I need its recorded CC50 at 72 h.
Result: 21.3 µM

Problem: For "C/C(=N\N=c1\scc(-c2ccccc2)n1C)c1ccc(Cl)c(Cl)c1" , what is its reported CC50 at 72 h?
Result: > 50 µM

Problem: Item under review: "C/C(=N\Nc1nc(-c2ccc(Br)cc2)c(C)s1)c1ccc(Cl)c(Cl)c1" . Reported CC50 at 72 h?
Result: > 50 µM

Problem: Which measured CC50 at 72 h value corresponds to "C/C(=N\N=c1\scc(-c2ccccc2)n1-c1ccccc1)c1ccc(Cl)c(Cl)c1" ?
Result: > 50 µM

Problem: Bench note: what CC50 at 72 h did "C/C(=N\Nc1nc(C)c(C)s1)c1ccc(Cl)c(Cl)c1" show?
Result: 41.8 µM

Problem: May I ask what CC50 at 72 h has been recorded for O=C(Cn1ccnc1[N+](=O)[O-])NCc1ccccc1 [BENZNIDAZOLE] ?
Result: > 50 µM

Problem: Query (compound): "C/C(=N\Nc1nc(-c2ccc(F)cc2)cs1)c1ccc(Cl)c(Cl)c1" ; field requested: CC50 at 72 h
Result: > 50 µM

Problem: Field request: CC50 at 72 h | item: "C/C(=N\Nc1nc(-c2ccccc2)cs1)c1ccc(Cl)c(Cl)c1"
Result: > 50 µM

Problem: Any idea what its CC50 at 72 h is? The compound is "C/C(=N\Nc1nc(-c2ccc(Cl)cc2Cl)cs1)c1ccc(Cl)c(Cl)c1"
Result: > 50 µM

Problem: Tell me the measured CC50 at 72 h of "C/C(=N\Nc1nc(CCl)cs1)c1ccc(Cl)c(Cl)c1" , please.
Result: > 50 µM

Problem: Given "C/C(=N\Nc1nc(-c2ccc(-c3ccccc3)cc2)cs1)c1ccc(Cl)c(Cl)c1" , state its recorded CC50 at 72 h.
Result: > 50 µM

Problem: Please look up its CC50 at 72 h: "C/C(=N\Nc1nc(-c2ccc([N+](=O)[O-])cc2)cs1)c1ccc(Cl)c(Cl)c1"
Result: > 50 µM

Problem: Look up CC50 at 72 h for this compound: "C/C(=N\Nc1nc(-c2ccc3ccccc3c2)cs1)c1ccc(Cl)c(Cl)c1"
Result: > 50 µM

Problem: CC50 at 72 h lookup needed for "COc1ccc(-c2csc(N/N=C(\C)c3ccc(Cl)c(Cl)c3)n2)cc1" , thanks.
Result: > 50 µM

Problem: I have this compound here, "C/C(=N\Nc1nc(-c2ccc(Br)cc2)cs1)c1ccc(Cl)c(Cl)c1" , and I need its recorded CC50 at 72 h.
Result: > 50 µM

Problem: GET /values?readout=CC50 at 72 h&item= "C/C(=N\Nc1nc(-c2ccncc2)cs1)c1ccc(Cl)c(Cl)c1"
Result: 39.8 µM

Problem: Looking for the measured CC50 at 72 h of "C/C(=N\Nc1nc(C)cs1)c1ccc(Cl)c(Cl)c1" , can you help?
Result: 33.7 µM

Problem: If you can, please state the reported CC50 at 72 h value of "C/C(=N\Nc1nc(-c2ccccn2)cs1)c1ccc(Cl)c(Cl)c1" .
Result: 10.1 µM

###

- PROCEDURE SUMMARY: Safety index, ratio of compound CC50 to gentian violet CC50 for cytotoxicity against rat H9c2 cells
- Format: cell-based
QUANTITY KIND: selectivity ratio
Answer field: number only, no words.

Problem: What does the record list as selectivity ratio for "C/C(=N\Nc1nc(-c2ccccn2)cs1)c1ccc(Cl)c(Cl)c1" ?
Result: 7

###

- PROCEDURE SUMMARY: Cytotoxicity against rat H9c2 cells assessed as reduction in cell viability after 72 hrs by alamar blue assay
- Format: cell-based
QUANTITY KIND: CC50 at 72 h

// below: answered compounds
O=C(Cn1ccnc1[N+](=O)[O-])NCc1ccccc1 [BENZNIDAZOLE] :: > 50 µM
C/C(=N\Nc1nc(-c2ccc(Br)cc2)c(C)s1)c1ccc(Cl)c(Cl)c1 :: > 50 µM
C/C(=N\Nc1nc(-c2ccc(C)cc2)cs1)c1ccc(Cl)c(Cl)c1 :: > 50 µM
C/C(=N\Nc1nc(-c2ccncc2)cs1)c1ccc(Cl)c(Cl)c1 :: 41.9 µM
C/C(=N\N=c1\scc(-c2ccccc2)n1-c1ccccc1)c1ccc(Cl)c(Cl)c1 :: > 50 µM

Now let's try a different one.
Problem: Could you tell me which CC50 at 72 h is on file for CN(C)c1ccc(C(=C2C=CC(=[N+](C)C)C=C2)c2ccc(N(C)C)cc2)cc1 [GENTIAN VIOLET] ?
Result: 1.5 µM
